Property: No of serum samples >30% inhibition (30% CCP) without SCP (serum samples); scope: individual binders
# targetUnderTest: pre-existing anti-drug antibodies (ADA) present in human sera
# protocol: pre-existing ADA ELISA, scFv coated, human sera unspiked vs spiked
// return just the number, without any unit appended

Use these answered entries as a reference point.
PRO2934 (scFv 37-20-B03-sc09.1_(L144K, S148L)) (scFv, PRO2230 variant; VH substitutions, AHo numbering; also called PRO2230 L144K-S148L) scFv: DIQMTQSPASLSASVGDRVTITCQASQSIGTYLAWYQQKPGKPPKLLIYRAFILASGVPSRFSGSGSGTDFTLTISSLQPEDFATYYCQSNFYSDSTTIGPNAFGTGTKVTVLGGGGGSGGGGSGGGGSGGGGSEVQLVESGGGLVQPGGSLRLSCAASGFSFNSDYWIYWVRQAPGKGLEWIASIYGGSSGNTQYASWAQGRFTISRDNSKNTVYLQMNSLRAEDTAVYFCARGYVDYGGATDLWGQGTKVTVLS
2
PRO2937 (scFv 54-21-H03-sc01_(T101S, L144A, T146Q)) (scFv, PRO1922 variant; VH substitutions, AHo numbering; also called PRO1922 T101S-L144A-T146Q) scFv: DIQMTQSPSSLSASVGDRVTITCQASESIYSSLAWYQQKPGKAPKLLIYLASTLASGVPSRFSGSGSGTDFTLTISSLQPEDFATYYCQSTDYTTSTHRNSFGTGTKVTVLGGGGGSGGGGSGGGGSGGGGSEVQLVESGGGLVQPGGSLRLSCAASGFSFSTTYYMCWVRQAPGKGLEWIGCTNTASSVRTYYATWAKGRFTISRDNSKNTVYLQMNSLRAEDSAVYYCARDMGFADYALNLWGQGTAVQVSS
5

Now consider a different binder.
Q) Quick one: No of serum samples >30% inhibition (30% CCP) without SCP (serum samples) of PRO2944 (scFv 54-21-H03-sc01_(T146Q)) (scFv, PRO1922 variant; VH substitution, AHo numbering; also called PRO1922 T146Q) scFv: DIQMTQSPSSLSASVGDRVTITCQASESIYSSLAWYQQKPGKAPKLLIYLASTLASGVPSRFSGSGSGTDFTLTISSLQPEDFATYYCQSTDYTTSTHRNSFGTGTKVTVLGGGGGSGGGGSGGGGSGGGGSEVQLVESGGGLVQPGGSLRLSCAASGFSFSTTYYMCWVRQAPGKGLEWIGCTNTASSVRTYYATWAKGRFTISRDNSKNTVYLQMNSLRAEDTAVYYCARDMGFADYALNLWGQGTLVQVSS ?
A) 3

Entry source: patent US20250382363A1
